Test system: TEADs
Assay: TEAD-specific 8×GTIIC-luciferase reporter assay
Format: cell-based
Details: 10 μM; 8×GTIIC-luciferase; read-out: Luciferase reporter assay inhibitory rate
The entries below are paired with their reported inhibition at 10 µM.
Response body: numeric value in %, unit text excluded.

Some entries whose results are on file:
{"columns": ["item_smiles", "recorded_measurement"],
 "data": [
  ["O=C(CCl)NCc1c[nH]c2cc(Cl)c(OCc3ccc4ccccc4c3)cc12", 67.4],
  ["O=C(CCl)c1c[nH]c2cc(Cl)c(OCc3cccc(C(F)(F)F)c3)cc12", 93.6],
  ["O=C(CCl)NCc1c[nH]c2cc(Cl)c(OCc3ccccc3)cc12", 97.8]
]}

query: I'd like to know its inhibition at 10 µM. The compound in question is O=C(CCl)NCc1c[nH]c2cc(Cl)c(OCc3cccc(C(F)(F)F)c3)cc12
result: 47.9

query: Check COc1cc2[nH]cc(C(=O)CCl)c2cc1OCc1cccc2ccccc12 too.
result: 64.5
